Target Or Test System: Nuclear receptor subfamily 1 group D member 1 (Homo sapiens) (UniProt P20393)
Sequence (P20393 whole entry, looked up): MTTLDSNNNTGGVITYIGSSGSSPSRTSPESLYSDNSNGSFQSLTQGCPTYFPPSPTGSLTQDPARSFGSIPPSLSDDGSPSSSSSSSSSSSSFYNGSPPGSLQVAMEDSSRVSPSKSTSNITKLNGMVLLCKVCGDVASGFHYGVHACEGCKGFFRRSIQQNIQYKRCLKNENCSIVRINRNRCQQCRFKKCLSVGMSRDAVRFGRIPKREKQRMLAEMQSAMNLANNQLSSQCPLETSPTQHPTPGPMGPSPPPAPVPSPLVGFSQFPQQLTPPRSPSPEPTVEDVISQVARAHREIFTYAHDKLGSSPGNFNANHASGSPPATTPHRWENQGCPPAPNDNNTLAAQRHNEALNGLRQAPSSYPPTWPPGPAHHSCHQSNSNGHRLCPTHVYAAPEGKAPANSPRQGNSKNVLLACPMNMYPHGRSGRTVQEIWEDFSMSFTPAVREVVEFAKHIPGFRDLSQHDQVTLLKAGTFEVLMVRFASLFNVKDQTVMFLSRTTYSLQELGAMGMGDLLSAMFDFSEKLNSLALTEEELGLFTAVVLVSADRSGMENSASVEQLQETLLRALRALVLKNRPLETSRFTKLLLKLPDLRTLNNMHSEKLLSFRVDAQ
Protocol Summary: modulators of Rev-erb alpha DNA binding, primary screen, biochemical, FITC-DNA, fluorescence polarization, uHTS (AID 1259318)
Assay Conditions: Rev-erbα–FITC-DNA binding, 90 min, at 10 µM
Screen size: about 370,000 compounds; about 3,000 (0.81%) were called active.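 Rule for the calls: active = activity above about 14% (limit read from the data; passing the limit was not always enough); inactive = the rest.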 The sample holds actives, similar compounds and a random draw of the others, so the mix is not that of the screen.
# valid calls are true (active), false (inactive); nothing else

Worked cases, answers included:
GET /call?item= "CCn1c(SCC(=O)Nc2cccc(F)c2)nnc1-c1cc2cc(Br)ccc2o1" returns the recorded outcome of this test. true

Let us now turn to "COc1ccc(C(=O)CSc2nccc(=O)[nH]2)cc1" false

Here is the next compound: "CCCn1c(SCC(=O)Nc2cccc(C(=O)OCC)c2)nnc1-c1ccoc1C" false

Repeat for the following compound: "CCn1c(CNC(=O)c2ccco2)nnc1SCC(=O)Nc1cccc(F)c1" false

Note, next up: "O=C(Nc1cccnc1)c1noc2c1CCCCC2" false

Now for a further compound.
Per the records of this test, what outcome belongs to "O=C(CSc1nc2ncccc2[nH]1)Nc1ccc2c(c1)OCCO2" ? false
